System: Staphylococcus epidermidis
Assay: In vitro antibacterial activity against Staphylococcus epidermidis 012GO39 OxaTei-R strain
Format: functional
metric: MIC (µg/mL)
Reply numerically in µg/mL, unit not repeated.

Input `CCCCCCCc1cc(O[C@@H]2O[C@@H](C)[C@H](OC)[C@@H](OC(=O)c3ccc(C)[nH]3)[C@H]2O)c(C)c2oc(=O)c(C(=O)O)cc12` . Output MIC: 0.3

Lookup result for `CO[C@@H]1[C@@H](OC(=O)c2ccc(C)[nH]2)[C@@H](O)[C@H](Oc2ccc3c(CC(=O)O)cc(=O)oc3c2C)O[C@H]1C` ; measured MIC: 10

Lab note: `CCCCCCCc1cc(O[C@@H]2O[C@@H](C)[C@H](OC)[C@@H](OC(=O)c3ccc(C)[nH]3)[C@H]2O)c(C)c2oc(=O)c(C(=O)NS(=O)(=O)c3ccccc3)cc12` gave MIC of 0.6

###

Test system: Staphylococcus aureus
Experiment: In vitro antibacterial activity against Staphylococcus aureus 011GO76 OfloOxaEry-R strain
Format: functional
metric: MIC

Record `CCCCCCCc1cc(O[C@@H]2O[C@@H](C)[C@H](OC)[C@@H](OC(=O)c3ccc(C)[nH]3)[C@H]2O)c(C)c2oc(=O)c(C(=O)NS(=O)(=O)c3ccccc3)cc12` . Reported MIC: 0.6 µg/mL

// sample CO[C@@H]1[C@@H](OC(=O)c2ccc(C)[nH]2)[C@@H](O)[C@H](Oc2ccc3c(O)c(NC(=O)c4ccc(O)c(CC=C(C)C)c4)c(=O)oc3c2Cl)OC1(C)C [CHLOROBIOCIN] , its MIC was < 0.04 µg/mL

Measured MIC, `CCCCCc1cc(O[C@@H]2OC(C)(C)[C@H](OC)[C@@H](OC(=O)c3ccc(C)[nH]3)[C@H]2O)c(C)c2oc(=O)c(C(=O)O)cc12` : 0.15 µg/mL

###

Test system: Streptococcus pyogenes
Experiment: In vitro antibacterial activity against Streptococcus pyogenes O2A1UC1 strain
metric: MIC

Query `CO[C@@H]1[C@@H](OC(=O)c2ccc(C)[nH]2)[C@@H](O)[C@H](Oc2ccc3c(CC(=O)O)cc(=O)oc3c2C)O[C@H]1C` yields MIC of > 40 µg/mL

Briefly, MIC measured for CO[C@@H]1[C@@H](OC(=O)c2ccc(C)[nH]2)[C@@H](O)[C@H](Oc2ccc3c(O)c(NC(=O)c4ccc(O)c(CC=C(C)C)c4)c(=O)oc3c2Cl)OC1(C)C [CHLOROBIOCIN] : < 0.04 µg/mL

Record summary for `CO[C@@H]1[C@@H](OC(=O)c2ccc(C)[nH]2)[C@@H](O)[C@H](Oc2ccc3c(CC(=O)O)cc(=O)oc3c2)O[C@H]1C` : reported MIC = > 40 µg/mL

Given item `CCCCCCCCCCCCc1cc(O[C@@H]2O[C@@H](C)[C@H](OC)[C@@H](OC(=O)c3ccc(C)[nH]3)[C@H]2O)c(C)c2oc(=O)c(C(=O)O)cc12` , the value recorded as its MIC is 0.3 µg/mL

Entry `CO[C@@H]1[C@@H](OC(=O)c2ccc(C)[nH]2)[C@@H](O)[C@H](Oc2cc(Cc3ccccc3)c3cc(C(=O)O)c(=O)oc3c2C)O[C@H]1C` ; MIC = 5 µg/mL

For this molecule ( `CCCCCc1cc(O[C@@H]2OC(C)(C)[C@H](OC)[C@@H](OC(=O)c3ccc(C)[nH]3)[C@H]2O)c(C)c2oc(=O)c(C(=O)O)cc12` ), measured MIC is < 0.04 µg/mL
